Assay Remarks: forskolin-driven CRE-LacZ activity in PC12 – cell-based, CRE-LacZ reporter, forskolin-stimulated, primary screen (AID 1146);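 note: PC12 cells with 6xCRE LacZ reporter stimulated by forskolin 10 µM; beta-galactosidase reporter signal reflecting CREB driven transcription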
Condition Details: luminescence, 4.5 h, higher = more signal, called active from +8 up or from −8 down
Listed compounds paired with reported z-score
Assay Endpoint: z-score

INSERT INTO results (smiles_str, assay_endpoint, endpoint_result) VALUES
  ('O=C(NCc1ccccc1)[C@@H]1c2ccccc2C(=O)N(Cc2ccc(OC(F)(F)F)cc2)[C@H]1c1ccc(CO)cc1', 'z-score', 0.129),
  ('C=CCN1C(=O)[C@@]2(O[C@@H](CCn3cc([C@H](O)c4ccccc4)nn3)[C@H]([Si](C)(C)c3ccc(OC)cc3)[C@H]2C)c2cc(N3C(=O)c4cccc5cccc3c45)ccc21', 'z-score', -0.592),
  ('CC(C)=C1C(=O)C(c2ccccc2)=C2CN3C(=O)N(CCc4ccccc4)C(=O)[C@]3(C)[C@H]21', 'z-score', 0.839),
  ('COCC(=C=CC[C@H](O)c1ccccc1OCCO)C[C@H](O)COCc1ccccc1', 'z-score', 0.497),
  ('C=CCN1C(=O)[C@]2(O[C@H](CCn3cc([C@H](O)c4ccccc4)nn3)[C@@H]([Si](C)(C)c3ccc(OC)cc3)[C@@H]2C)c2cc(NC(=O)c3ccc(OC)cc3)ccc21', 'z-score', -1.54),
  ('O=C1C[C@@](C(=O)NCc2ccccc2)(c2ccc([N+](=O)[O-])cc2)[C@@H](c2ccc(CO)cc2)N1C1CCCCC1', 'z-score', -0.932),
  ('CN(C)CCCC[C@@H]1NC(=O)[C@@H]2C[C@H](C(=O)NCCCCCN)[C@H](c3cccc(OCCO)c3)N2C1=O', 'z-score', -0.469);
